Cited source for all entries: ChEMBL document CHEMBL1275440

Tested on: Streptococcus intermedius
Experiment: Antibacterial activity against Streptococcus intermedius clinical isolate assessed as susceptibility level by broth microdilution method
Type: functional
# reported Activity; entries follow

| COMPOUND STRUCTURE | READOUT UNIT | Activity |
| --- | --- | --- |
| CO/N=C(\C(=O)N[C@@H]1C(=O)N2C(C(=O)O)=C(CSc3nc(=O)c(O)nn3C)CS[C@H]12)c1csc(N)n1 | % | 75 |
| CCC[C@@H]1C[C@@H](C(=O)N[C@@H]([C@H]2O[C@H](SC)[C@H](O)[C@@H](O)[C@H]2O)[C@H](C)Cl)N(C)C1 | % | 88 |
| CC[C@H]1OC(=O)[C@H](C)[C@@H](O[C@H]2C[C@@](C)(OC)[C@@H](O)[C@H](C)O2)[C@H](C)[C@@H](O[C@@H]2O[C@H](C)C[C@H](N(C)C)[C@H]2O)[C@](C)(O)C[C@@H](C)C(=O)[C@H](C)[C@@H](O)[C@]1(C)O | % | 63 |
| CCCCCCCCCC(=O)N[C@@H](Cc1c[nH]c2ccccc12)C(=O)N[C@H](CC(N)=O)C(=O)N[C@@H](CC(=O)O)C(=O)N[C@@H]1C(=O)NCC(=O)N[C@@H](CCCN)C(=O)N[C@@H](CC(=O)O)C(=O)N[C@H](C)C(=O)N[C@@H](CC(=O)O)C(=O)NCC(=O)N[C@H](CO)C(=O)N[C@@H]([C@H](C)CC(=O)O)C(=O)N[C@@H](CC(=O)c2ccccc2N)C(=O)O[C@@H]1C | % | 100 |
| CC(=O)NC[C@H]1CN(c2ccc(N3CCOCC3)c(F)c2)C(=O)O1 | % | 100 |
| CN(C)[C@@H]1C(O)=C(C(N)=O)C(=O)[C@@]2(O)C(O)=C3C(=O)c4c(O)cccc4[C@@](C)(O)[C@H]3C[C@@H]12 | % | 75 |
| C[C@H]1COc2c(N3CCN(C)CC3)c(F)cc3c(=O)c(C(=O)O)cn1c23.C[C@H]1COc2c(N3CCN(C)CC3)c(F)cc3c(=O)c(C(=O)O)cn1c23.O | % | 100 |
| CC1(C)S[C@@H]2[C@H](NC(=O)Cc3ccccc3)C(=O)N2[C@H]1C(=O)O | % | 62 |
| CN[C@H](CC(C)C)C(=O)N[C@H]1C(=O)N[C@@H](CC(N)=O)C(=O)N[C@H]2C(=O)N[C@H]3C(=O)N[C@H](C(=O)N[C@H](C(=O)O)c4cc(O)cc(O)c4-c4cc3ccc4O)[C@H](O)c3ccc(c(Cl)c3)Oc3cc2cc(c3O[C@@H]2O[C@H](CO)[C@@H](O)[C@H](O)[C@H]2O[C@H]2C[C@](C)(N)[C@H](O)[C@H](C)O2)Oc2ccc(cc2Cl)[C@H]1O | % | 100 |
